assay: basal MM1S mitochondrial membrane potential changes, profiling panel, cell-based, JC-1 fluorescence, 24 h, 100 nL compound (AID 1170); conditions: higher = more signal; note: test concentration not given here
measurementLabel: z-score
Note: the reply should be a number with no unit written.

Input line: Item O=C1O[C@H](c2ccccc2)[C@H](c2ccccc2)N2[C@H]1[C@@H](C(=O)NC[C@H](O)c1ccccc1)[C@]1(C(=O)Nc3ccc(C#CCCO)cc31)[C@H]2c1ccccc1OCCO has what recorded z-score?
Output line: -0.341

Input line: I'd like to know its z-score. The compound in question is C=CCC(OC(C)=O)[C@@H]1[C@@H](N(Cc2ccc(-c3cccc(C(F)(F)F)c3)o2)C(=O)c2cccc3ccccc23)c2cc(OCCCO)ccc2N1C(=O)c1ccc2ccccc2n1 (stereo partly specified)
Output line: 0.582

Input line: Look at this compound and give its reported z-score. O=C1OCCC=C[C@H]2OC34C=CCN(c5ccc(Cl)cc5)C(=O)[C@H]3N(CCO)C(=O)[C@@H]4C12 (stereo partly specified)
Output line: 1.29

Input line: GET /values?readout=z-score&item= O=C1NC(=O)C2C1C=CC(C(O)c1ccc(F)cc1)N2Nc1ccccn1 (stereo unspecified)
Output line: 0.247

Input line: Name the reported z-score value associated with the compound COC(=O)c1ccc([C@H](NC(=O)c2ccccc2)[C@]2(C)C[C@H]2C2CCCCC2)cc1
Output line: -1.33

Input line: Return reported z-score; argument: COc1ccc(CCNC(=O)[C@@H]2c3ccccc3C(=O)N(CC34CC5CC(CC(C5)C3)C4)[C@H]2c2ccc(CO)cc2)cc1
Output line: -0.0819

Input line: Recorded z-score of COc1ccc([Si](C)(C)[C@H]2[C@H](CCn3cc([C@H](O)c4ccccc4)nn3)O[C@@]3(C(=O)N(C)c4c(Br)cc(C)cc43)[C@@H]2C)cc1 , please.
Output line: 0.212

Input line: For the compound CN(C)C(=O)[C@]1(Cc2ccccc2CN=[N+]=[N-])N=C(c2ccc(OCCCO)cc2)O[C@@H]1c1ccccc1N=[N+]=[N-] , what z-score is on record?
Output line: -1.29

Input line: Looking for the measured z-score of O=C1O[C@@H](c2ccccc2)[C@@H](c2ccccc2)N2[C@@H](c3ccc(O)cc3)[C@]3(C(=O)Nc4ccc(C#CC5=CCCCC5)cc43)[C@@H](C(=O)N3CCCCCCC3)[C@H]12 , can you help?
Output line: 0.135

Input line: Could you share which z-score value was measured for COc1cccc(C[C@H]2C[C@@H](CO[Si](C(C)C)(C(C)C)C(C)C)N3C(=O)[C@@]4(C(C)=O)O[C@@]23[C@@H]2C(=O)N(C)C(=O)[C@@H]24)c1 ?
Output line: -0.661

Input line: Look up z-score: COc1ccccc1CN1C(=O)c2ccccc2[C@](Cc2ccccc2I)(C(=O)NCCCN(C)C)[C@@H]1c1ccc(CO)cc1
Output line: -2.23

* * *

molecular target: Fibroblast growth factor 10 (Homo sapiens); experiment: FGF10 binders on small-molecule microarrays, primary screen, biochemical, small-molecule microarray, 635 nm fluorescence (AID 1102); conditions: FGF10 binding, fluorescence 635 nm, higher = more signal
measurementLabel: composite z-score
Could you respond with only the numeric value?

Input line: Item under review: CCOC(=O)C1=C[C@@H](C(C)(C)C)N(S(=O)(=O)c2ccc(C)cc2)[C@H]1c1ccccc1Cl . Reported composite z-score?
Output line: 0.915

Input line: Any idea what its composite z-score is? The molecule is C=CC[C@@]1(C(=O)O)N=C(c2ccc(OCCCO)cc2)O[C@@H]1c1ccccc1CN=[N+]=[N-]
Output line: 0.397

Input line: State the recorded composite z-score for this entry: Cc1ccc(S(=O)(=O)N2[C@@H](c3ccccc3)C(C(=O)O)=CC[C@H]2c2ccc(C#N)cc2)cc1
Output line: 0.888
